B1: Caulobacter ParB omega fusion; a variant is named by its letters at X, in order, B8GW30 (parent)
chain: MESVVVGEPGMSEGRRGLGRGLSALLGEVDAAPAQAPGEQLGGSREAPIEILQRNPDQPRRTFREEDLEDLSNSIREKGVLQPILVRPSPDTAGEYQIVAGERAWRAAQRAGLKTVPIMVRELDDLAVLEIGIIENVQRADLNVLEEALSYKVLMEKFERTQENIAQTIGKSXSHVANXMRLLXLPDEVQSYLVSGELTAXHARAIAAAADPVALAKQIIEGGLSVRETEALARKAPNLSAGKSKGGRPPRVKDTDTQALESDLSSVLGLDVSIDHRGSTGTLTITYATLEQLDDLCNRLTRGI

Variants of: B1
Procedure Text: one-hybrid fitness for binding NBS DNA (the Noc-binding site; scaled: cognate 1, non-cognate 0); higher = stronger binding
Protocol Conditions: with NBS DNA site
Whole data set: some 81,000 sequences, median “one-hybrid fitness for binding NBS DNA” near -0.1, cut for the highest 2% near 0.36. The full list was thinned out, with the highest values kept by preference.

Change: DHID
one-hybrid fitness for binding NBS DNA: ≤ 0.2

Change: RYKC
one-hybrid fitness for binding NBS DNA: 0.367

Change: RTGY
one-hybrid fitness for binding NBS DNA: ≤ 0.2

Change: QTGQ
one-hybrid fitness for binding NBS DNA: 0.27

Change: QPNT
one-hybrid fitness for binding NBS DNA: ≤ 0.2

Change: QMCS
one-hybrid fitness for binding NBS DNA: 0.38

Change: QRMK
one-hybrid fitness for binding NBS DNA: 0.404

Change: NVTV
one-hybrid fitness for binding NBS DNA: ≤ 0.2

Change: QTWS
one-hybrid fitness for binding NBS DNA: 0.444

Change: IEPR
one-hybrid fitness for binding NBS DNA: 0.427

Change: RRMD
one-hybrid fitness for binding NBS DNA: ≤ 0.2

Change: RRYQ
one-hybrid fitness for binding NBS DNA: 0.207

Change: RCVQ
one-hybrid fitness for binding NBS DNA: 0.215

Change: DDKT
one-hybrid fitness for binding NBS DNA: ≤ 0.2

Change: ARHT
one-hybrid fitness for binding NBS DNA: ≤ 0.2

Change: HGGT
one-hybrid fitness for binding NBS DNA: ≤ 0.2

Change: RIAR
one-hybrid fitness for binding NBS DNA: 0.384

Change: RYKP
one-hybrid fitness for binding NBS DNA: ≤ 0.2

Change: QMCD
one-hybrid fitness for binding NBS DNA: ≤ 0.2

Change: RYKH
one-hybrid fitness for binding NBS DNA: 0.396

Change: QKWT
one-hybrid fitness for binding NBS DNA: 0.454

Change: QKWG
one-hybrid fitness for binding NBS DNA: ≤ 0.2

Change: SPSF
one-hybrid fitness for binding NBS DNA: ≤ 0.2

Change: QLNN
one-hybrid fitness for binding NBS DNA: ≤ 0.2

Change: GFEG
one-hybrid fitness for binding NBS DNA: ≤ 0.2

Change: RYKS
one-hybrid fitness for binding NBS DNA: 0.57

Change: RHFR
one-hybrid fitness for binding NBS DNA: 0.206

Change: CWPS
one-hybrid fitness for binding NBS DNA: ≤ 0.2

Change: KLNI
one-hybrid fitness for binding NBS DNA: ≤ 0.2

Change: NLEL
one-hybrid fitness for binding NBS DNA: ≤ 0.2

Change: QKMD
one-hybrid fitness for binding NBS DNA: ≤ 0.2

Change: RAAR
one-hybrid fitness for binding NBS DNA: 0.385

Change: RYVC
one-hybrid fitness for binding NBS DNA: ≤ 0.2

Change: QFNT
one-hybrid fitness for binding NBS DNA: ≤ 0.2

Change: QTQN
one-hybrid fitness for binding NBS DNA: ≤ 0.2

Change: QKCY
one-hybrid fitness for binding NBS DNA: ≤ 0.2

Change: TEPR
one-hybrid fitness for binding NBS DNA: ≤ 0.2

Change: QAWT
one-hybrid fitness for binding NBS DNA: 0.297

Change: AQDG
one-hybrid fitness for binding NBS DNA: ≤ 0.2

Change: QKHC
one-hybrid fitness for binding NBS DNA: ≤ 0.2
